- assayDetails: In vivo pharmacokinetic study in male Sprague-Dawley rats (IV and PO)
- Parameters: species or system Sprague-Dawley rat
- measurementContext: Sprague-Dawley, rat, plasma, 2 mg/kg; male SD rats, IV 2 mpk
attributeMeasured: clearance (mL/min/kg)

{"columns": ["molecule", "endpointValue"],
 "data": [
  ["O=C(O)CSc1nnc(Br)n1-c1ccc(C2CC2)c2ccccc12 (racemic) [(±)-Lesinurad, Lesinurad, reference compound]", 5.72]
]}

###

- assayDetails: Stability of compounds in human plasma
- Type: in vitro ADME
- measurementContext: human, plasma, pH 7.4, human plasma, 2 μM, 37° C., 0 min; read-out: Recovery (% remaining)
- Method: Test 5: Evaluation of the Stability of Compounds in Rat Plasma and Human Plasma 2. […] Measured the value of pH, if required, adjusted it to 7.4±0.1. • 2.2 Prepared 400 μM intermediate solution by diluting 4 μL of the working solution (10 mM) with 96 μL DMSO. • 2.3 Preparation of incubation samples: Remove 3 μL of intermediate solution (400 μM) to mix with 597 μL of blank plasma to achieve 2 μM of final concentration. […]
attributeMeasured: recovery at 0 min, 2 μM (%)

{"columns": ["molecule", "attributeMeasured", "endpointValue"],
 "data": [
  ["O=C(O)CSc1nnc(Br)n1-c1ccc(C2CC2)c2ccccc12 (single isomer, unassigned) [(+)-Lesinurad]", "recovery at 0 min, 2 μM", 100]
]}
